targetEntity: IDH1 (R132C) (Homo sapiens (Human), UniProt O75874, R132C)
Sequence (O75874 whole entry R132C): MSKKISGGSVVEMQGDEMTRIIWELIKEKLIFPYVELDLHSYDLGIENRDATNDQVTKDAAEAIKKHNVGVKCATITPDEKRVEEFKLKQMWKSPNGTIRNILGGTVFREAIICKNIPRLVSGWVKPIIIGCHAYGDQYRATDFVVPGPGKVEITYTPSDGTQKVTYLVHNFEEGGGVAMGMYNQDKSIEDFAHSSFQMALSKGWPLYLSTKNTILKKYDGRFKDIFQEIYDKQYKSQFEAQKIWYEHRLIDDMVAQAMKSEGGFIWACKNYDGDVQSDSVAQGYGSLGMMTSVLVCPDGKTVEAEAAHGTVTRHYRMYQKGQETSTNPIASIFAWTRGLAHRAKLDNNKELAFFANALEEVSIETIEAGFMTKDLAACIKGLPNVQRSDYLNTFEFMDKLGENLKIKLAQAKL
test: Enzyme assay, NADPH decrease detected with Diaphorase/Resazurin
runConditions: 40 nM enzyme, 20 μM NADPH, incubated at 23° C. for 16 hours before α-KG; 12 concentrations
From the text: Resazurin is a traditional redox dye, and after a redox reaction, it can be reduced from a blue resazurin without fluorescence to a pink fluorescent substance, resorufin, which can be measured and quantified with relative fluorescence unit (RFU) of fluorophotometer (Ex=530-570 nm, Em=590-620 nm). At present, resazurin is widely used for determining the viability of bacteria, cells, etc. and the enzyme activity detection of oxidoreductase. […]
measuredEndpoint: IC50

Reported IC50 of O=C(NC1CC(F)(F)C1)[C@H](c1ccccc1Cl)N(C(=O)CNS(=O)(=O)N1CC1)c1cccc(F)c1 [Example 25] : < 0.02 µM

---

test: Pharmacokinetic test
Assay type: in vivo
runConditions: rat; male SD rats, oral 5 mg/kg, 0.5% MC, 0.2% Tween80, plasma; read-out: AUCINF—obs
measuredEndpoint: AUC(0-inf) (ng·h/mL)
Write the value in ng·h/mL as a bare number.

Measured AUC(0-inf) of O=C(NC1CC(F)(F)C1)C(c1ccccc1Cl)N(C(=O)CNS(=O)(=O)N1CC1)c1cccc(F)c1 (stereo not shown) : 794

---

test: Pharmacokinetic test
Assay type: in vivo
runConditions: rat; male SD rats, oral 5 mg/kg, 0.5% MC, 0.2% Tween80, plasma
measuredEndpoint: Cmax (ng/mL)
A number alone suffices; assume ng/mL.

Per the record, O=C(NC1CC(F)(F)C1)C(c1ccccc1Cl)N(C(=O)CNS(=O)(=O)N1CC1)c1cccc(F)c1 (stereo not shown) has Cmax of 508

---

test: Pharmacokinetic test
Assay type: in vivo
runConditions: rat; male SD rats, oral 5 mg/kg, 0.5% MC, 0.2% Tween80, plasma
measuredEndpoint: Tmax (min)
Provide the reading as a plain figure in min.

// Tmax value for O=C(NC1CC(F)(F)C1)C(c1ccccc1Cl)N(C(=O)CNS(=O)(=O)N1CC1)c1cccc(F)c1 (stereo not shown) [Example 10] : 15

---

test: Pharmacokinetic test
Assay type: in vivo
runConditions: rat; male SD rats, oral 5 mg/kg, 0.5% MC, 0.2% Tween80, plasma
measuredEndpoint: half-life
# answer = value followed by unit

The recorded half-life for entry O=C(NC1CC(F)(F)C1)C(c1ccccc1Cl)N(C(=O)CNS(=O)(=O)N1CC1)c1cccc(F)c1 (stereo not shown) [Example 10] equals 1.5 h

---

targetEntity: IDH1 (R132H) (Homo sapiens (Human), UniProt O75874, R132H)
Sequence (O75874 whole entry R132H): as the sequence (O75874 whole entry R132C) above, with C132H counted along it
test: Enzyme assay, NADPH decrease detected with Diaphorase/Resazurin
runConditions: 40 nM enzyme, 20 μM NADPH, incubated at 23° C. for 16 hours before α-KG; 12 concentrations
Measured IC50 values are reported for all entries that follow.

Entry under test: O=C(NC1CCCCC1)C(c1ccccc1Cl)N(C(=O)CCS(=O)(=O)N1CC1)c1cccc(F)c1 (stereo not shown) . Its IC50 was < 20 nM

# compound O=C(NC1CCCCC1)[C@@H](c1ccccc1Cl)N(C(=O)[C@@H]1CCCN1S(=O)(=O)N1CC1)c1cccc(F)c1 ; its IC50 = < 10000 nM

---

targetEntity: IDH1 (R132H) (Homo sapiens (Human), UniProt O75874, R132H)
test: Enzyme assay, NADPH decrease detected with Diaphorase/Resazurin
runConditions: 40 nM enzyme, 20 μM NADPH, incubated at 23° C. for 16 hours before α-KG; 12 concentrations
measuredEndpoint: IC50

1) O=C(NC1CC(F)(F)C1)[C@@H](c1ccccc1Cl)N(C(=O)[C@@H]1CCN(S(=O)(=O)N2CC2)C1)c1cccc(F)c1    < 1 µM
2) C[C@H]1CN1S(=O)(=O)NCC(=O)N(c1cccc(F)c1)C(C(=O)NC1CCCCC1)c1ccccc1Cl (some centres unmarked)    < 0.02 µM
3) C[C@H]1CN1S(=O)(=O)NCC(=O)N(c1cc(F)cc(C#N)c1)C(C(=O)NC1CC(F)(F)C1)c1ccccc1Cl (some centres unmarked)    < 0.1 µM
4) O=C(NC1CCCCC1)C(c1ccccc1Cl)N(C(=O)CCCCS(=O)(=O)N1CC1)c1cccc(F)c1 (centres unmarked)    < 0.02 µM
5) O=C(NC1CC(F)(F)C1)C(c1ccccc1Cl)N(C(=O)CCCNS(=O)(=O)N1CC1)c1cccc(F)c1 (centres unmarked)    < 0.02 µM

What the record says about O=C(NC1CC(F)(F)C1)[C@H](c1ccccc1Cl)N(C(=O)CNS(=O)(=O)N1CC1)c1cccc(F)c1 : IC50 is < 0.02 µM

IC50 recorded for this molecule, O=C(NC1CCCCC1)C(c1ccccc1Cl)N(C(=O)CNS(=O)(=O)N1CC1)c1cncc(F)c1 (centres unmarked) , is < 0.02 µM

Where do the numbers come from? From patent US11203586B2.
